Molecular target: T1, human ACVR2A (human, UniProt P27037 20-135, limits assumed); further: test concentration or dose not given here
T1 construct: also called activin receptor, type II A
T1 sequence (P27037 20-135 limits assumed): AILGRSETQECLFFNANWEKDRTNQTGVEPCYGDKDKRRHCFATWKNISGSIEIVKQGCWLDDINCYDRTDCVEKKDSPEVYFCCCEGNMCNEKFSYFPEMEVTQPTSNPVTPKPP
Experiment: ELISA
Readout kind: optical density (OD)
Numeric only. Scale: OD

INSERT INTO results (binder, measurement_unit, quantitative_result) VALUES
  ('373_F02 (antibody, V domains shown, VH and VL only) VH: EVQLLESGGGLVQPGGSLRLSCAASGFTFDSYSMNWVRQAPGKGLEWVSGINYNSGYKSYADSVKGRFTISRDNSKNTLYLQMNSLRAEDTAVYYCARSATWHDTHLDYWGQGTLVTVSS VL: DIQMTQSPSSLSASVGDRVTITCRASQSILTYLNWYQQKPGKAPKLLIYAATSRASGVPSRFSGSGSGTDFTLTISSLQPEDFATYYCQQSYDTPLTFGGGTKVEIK', 'OD', 3.62),
  ('369_A06 (antibody, V domains shown, VH and VL only) VH: EVQLLESGGGLVQPGGSLRLSCAASGFTFSDYGMNWVRQAPGKGLEWVSNINYNGGYTGYADSVKGRFTISRDNSKNTLYLQMNSLRAEDTAVYYCARSATWHDTHLDYWGQGTLVTVSS VL: DIQMTQSPSSLSASVGDRVTITCRASQSILSYVNWYQQKPGKAPKLLIYAATSLASGVPSRFSGSGSGTDFTLTISSLQPEDFATYYCQQSYDLPLTFGGGTKVEIK', 'OD', 2.89);

Now turn to the next binder.
For 374_F09 (antibody, V domains shown, VH and VL only) VH: EVQLLESGGGLVQPGGSLRLSCAASGFTFSSYGMNWVRQAPGKGLEWVSSINYNSGYTSYADSVKGRFTISRDNSKNTLYLQMNSLRAEDTAVYYCARSATWHDTHLDYWGQGTLVTVSS VL: DIQMTQSPSSLSASVGDRVTITCRASQSISSYVNWYQQKPGKAPKLLIYAATSRASGVPSRFSGSGSGTDFTLTISSLQPEDFATYYCQQSYSTPLTFGGGTKVEIK the binder record lists optical density as 3.53

Source listed as patent US20210380703A1.
